target: human α1G T-type channels (Homo sapiens, UniProt O43497); experiment: T-type calcium channel block, whole cell patch clamp, α1G; details: HEK cells stably expressing human α1G; mainly non-inactivated protocol; values above 10,000 nM represented as 10000
Sequence (O43497 whole entry): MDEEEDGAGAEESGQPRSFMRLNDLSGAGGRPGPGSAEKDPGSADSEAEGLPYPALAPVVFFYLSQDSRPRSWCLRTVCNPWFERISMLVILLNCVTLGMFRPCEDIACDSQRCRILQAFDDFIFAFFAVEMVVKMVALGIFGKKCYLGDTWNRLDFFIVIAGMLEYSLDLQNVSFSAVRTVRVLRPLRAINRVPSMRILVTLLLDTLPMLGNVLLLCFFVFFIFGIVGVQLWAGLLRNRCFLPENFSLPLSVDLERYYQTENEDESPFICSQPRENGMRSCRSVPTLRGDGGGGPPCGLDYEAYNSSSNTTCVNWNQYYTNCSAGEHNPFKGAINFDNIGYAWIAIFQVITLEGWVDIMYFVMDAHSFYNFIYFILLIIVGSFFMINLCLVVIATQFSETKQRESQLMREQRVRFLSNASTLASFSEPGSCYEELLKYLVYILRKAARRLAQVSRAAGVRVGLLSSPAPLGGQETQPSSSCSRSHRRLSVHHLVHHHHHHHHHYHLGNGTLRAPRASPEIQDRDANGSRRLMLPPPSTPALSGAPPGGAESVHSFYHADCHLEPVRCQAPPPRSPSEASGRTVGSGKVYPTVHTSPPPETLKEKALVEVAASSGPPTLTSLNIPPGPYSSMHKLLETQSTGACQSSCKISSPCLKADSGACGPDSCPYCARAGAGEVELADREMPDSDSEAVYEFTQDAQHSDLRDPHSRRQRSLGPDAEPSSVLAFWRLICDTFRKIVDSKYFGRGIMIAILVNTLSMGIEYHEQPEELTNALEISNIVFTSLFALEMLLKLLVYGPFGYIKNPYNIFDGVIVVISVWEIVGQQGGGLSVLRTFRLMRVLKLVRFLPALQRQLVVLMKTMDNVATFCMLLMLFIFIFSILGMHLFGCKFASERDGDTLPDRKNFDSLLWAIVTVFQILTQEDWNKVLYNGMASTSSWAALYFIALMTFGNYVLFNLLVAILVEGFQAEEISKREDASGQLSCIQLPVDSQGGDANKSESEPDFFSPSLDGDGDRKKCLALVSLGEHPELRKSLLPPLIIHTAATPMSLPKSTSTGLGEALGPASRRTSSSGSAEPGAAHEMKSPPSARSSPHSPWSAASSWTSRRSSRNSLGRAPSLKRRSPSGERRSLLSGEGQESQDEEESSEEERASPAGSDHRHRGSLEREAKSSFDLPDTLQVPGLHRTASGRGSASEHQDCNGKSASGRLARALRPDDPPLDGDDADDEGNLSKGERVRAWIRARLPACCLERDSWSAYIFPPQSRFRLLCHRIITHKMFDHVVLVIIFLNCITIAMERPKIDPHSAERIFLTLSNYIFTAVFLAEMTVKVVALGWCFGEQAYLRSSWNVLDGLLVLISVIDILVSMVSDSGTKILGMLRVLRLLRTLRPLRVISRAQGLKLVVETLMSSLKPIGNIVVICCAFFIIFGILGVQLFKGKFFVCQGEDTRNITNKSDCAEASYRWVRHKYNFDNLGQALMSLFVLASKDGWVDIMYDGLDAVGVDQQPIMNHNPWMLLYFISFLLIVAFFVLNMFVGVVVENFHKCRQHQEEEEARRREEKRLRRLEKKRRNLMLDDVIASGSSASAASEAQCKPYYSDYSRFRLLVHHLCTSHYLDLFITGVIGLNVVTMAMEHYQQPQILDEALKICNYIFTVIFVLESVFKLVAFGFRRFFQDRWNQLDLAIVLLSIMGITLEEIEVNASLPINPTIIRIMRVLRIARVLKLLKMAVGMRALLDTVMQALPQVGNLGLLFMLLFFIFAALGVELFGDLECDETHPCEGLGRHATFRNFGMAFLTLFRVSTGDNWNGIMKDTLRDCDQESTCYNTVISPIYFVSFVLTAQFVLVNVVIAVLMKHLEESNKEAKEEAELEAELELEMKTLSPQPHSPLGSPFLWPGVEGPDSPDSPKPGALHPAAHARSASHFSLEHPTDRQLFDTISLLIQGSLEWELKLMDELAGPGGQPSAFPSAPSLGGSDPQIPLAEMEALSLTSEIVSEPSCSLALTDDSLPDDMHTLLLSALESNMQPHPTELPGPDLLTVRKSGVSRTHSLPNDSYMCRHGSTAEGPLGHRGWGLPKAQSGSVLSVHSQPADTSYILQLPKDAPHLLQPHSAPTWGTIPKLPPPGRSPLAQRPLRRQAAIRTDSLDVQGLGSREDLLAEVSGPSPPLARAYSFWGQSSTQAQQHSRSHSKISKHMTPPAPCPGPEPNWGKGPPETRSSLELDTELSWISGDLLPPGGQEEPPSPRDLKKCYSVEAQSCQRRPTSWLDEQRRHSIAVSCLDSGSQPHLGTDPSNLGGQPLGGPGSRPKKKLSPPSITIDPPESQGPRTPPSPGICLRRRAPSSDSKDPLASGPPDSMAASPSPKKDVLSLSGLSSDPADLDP
Item-by-item account of IC50

Below: 10 molecules and their reported IC50.
• Cn1nc(C(F)(F)F)cc1C(=O)N[C@H]1C[C@H](CS(=O)(=O)c2cccc(C(F)(F)F)c2)C1 = > 10 µM
• O=C(N[C@H]1CC[C@@](F)(S(=O)(=O)c2cc(F)cc(C(F)(F)F)c2)CC1)c1cc(C(F)(F)F)ccn1 = > 10 µM
• CC(C)(CNC(=O)c1cc(F)cc(Cl)c1)S(=O)(=O)c1cccc(C(F)(F)F)c1 = 0.4 µM
• CS(=O)(=O)c1cc(C(=O)N[C@H]2CC[C@@](F)(S(=O)(=O)c3cccc(C(F)(F)F)c3)CC2)cc(C(F)(F)F)n1 = > 10 µM
• CC(C)(CCS(=O)(=O)c1cccc(C(F)(F)F)c1)S(=O)(=O)c1cccc(C(F)(F)F)c1 = 0.1 µM
• O=C(N[C@H]1CC[C@@](F)(S(=O)(=O)c2cccc(C(F)(F)F)c2)CC1)c1ccc(Cl)c(Cl)c1 = > 10 µM
• O=C(NC[C@H]1C[C@H](S(=O)(=O)c2cccc(C(F)(F)F)c2)C1)c1ccc(Cl)c(OC(F)(F)F)c1 = > 10 µM
• CC(C)(CCNC(=O)c1cc(F)cc(Cl)c1)S(=O)(=O)c1cccc(C(F)(F)F)c1 = 0.05 µM
• O=C(N[C@H]1CC[C@@H](S(=O)(=O)c2cccc(C(F)(F)F)c2)CC1)c1cc(-c2ccc(F)cc2)n[nH]1 = 1.25 µM
• CN(C(=O)CN[C@H]1CC[C@@H](S(=O)(=O)c2cccc(C(F)(F)F)c2)CC1)C(C)(C)C = > 10 µM

Query block: # IC50 lookup, item "O=C(NC[C@H]1C[C@@H](S(=O)(=O)c2cccc(C(F)(F)F)c2)C1)c1ccc(C(F)(F)F)cn1"
Result block: > 10 µM

Query block: Quick one: CC(C)(C)NC(=O)CNC1(C)CCC(F)(S(=O)(=O)c2cccc(C(F)(F)F)c2)CC1 (centres unmarked)
Result block: > 10 µM

Query block: Now consider "CS(=O)(=O)c1cc(C(F)(F)F)cnc1C(=O)N[C@H]1CC[C@@](F)(S(=O)(=O)c2cccc(C(F)(F)F)c2)CC1" .
Result block: 6.11 µM

Query block: // query: "O=C(NC[C@H]1C[C@H](S(=O)(=O)c2cccc(C(F)(F)F)c2)C1)c1ccc(F)c(C(F)(F)F)c1"
Result block: > 10 µM

----------
target: T-type calcium channel (Homo sapiens); experiment: T-type channel blocking, FLIPR data (Table 6); format: cell-based; conditions: CAv3.2, closed state, read-out: CAv3.2 IC50 Closed
Sequence (O95180 whole entry): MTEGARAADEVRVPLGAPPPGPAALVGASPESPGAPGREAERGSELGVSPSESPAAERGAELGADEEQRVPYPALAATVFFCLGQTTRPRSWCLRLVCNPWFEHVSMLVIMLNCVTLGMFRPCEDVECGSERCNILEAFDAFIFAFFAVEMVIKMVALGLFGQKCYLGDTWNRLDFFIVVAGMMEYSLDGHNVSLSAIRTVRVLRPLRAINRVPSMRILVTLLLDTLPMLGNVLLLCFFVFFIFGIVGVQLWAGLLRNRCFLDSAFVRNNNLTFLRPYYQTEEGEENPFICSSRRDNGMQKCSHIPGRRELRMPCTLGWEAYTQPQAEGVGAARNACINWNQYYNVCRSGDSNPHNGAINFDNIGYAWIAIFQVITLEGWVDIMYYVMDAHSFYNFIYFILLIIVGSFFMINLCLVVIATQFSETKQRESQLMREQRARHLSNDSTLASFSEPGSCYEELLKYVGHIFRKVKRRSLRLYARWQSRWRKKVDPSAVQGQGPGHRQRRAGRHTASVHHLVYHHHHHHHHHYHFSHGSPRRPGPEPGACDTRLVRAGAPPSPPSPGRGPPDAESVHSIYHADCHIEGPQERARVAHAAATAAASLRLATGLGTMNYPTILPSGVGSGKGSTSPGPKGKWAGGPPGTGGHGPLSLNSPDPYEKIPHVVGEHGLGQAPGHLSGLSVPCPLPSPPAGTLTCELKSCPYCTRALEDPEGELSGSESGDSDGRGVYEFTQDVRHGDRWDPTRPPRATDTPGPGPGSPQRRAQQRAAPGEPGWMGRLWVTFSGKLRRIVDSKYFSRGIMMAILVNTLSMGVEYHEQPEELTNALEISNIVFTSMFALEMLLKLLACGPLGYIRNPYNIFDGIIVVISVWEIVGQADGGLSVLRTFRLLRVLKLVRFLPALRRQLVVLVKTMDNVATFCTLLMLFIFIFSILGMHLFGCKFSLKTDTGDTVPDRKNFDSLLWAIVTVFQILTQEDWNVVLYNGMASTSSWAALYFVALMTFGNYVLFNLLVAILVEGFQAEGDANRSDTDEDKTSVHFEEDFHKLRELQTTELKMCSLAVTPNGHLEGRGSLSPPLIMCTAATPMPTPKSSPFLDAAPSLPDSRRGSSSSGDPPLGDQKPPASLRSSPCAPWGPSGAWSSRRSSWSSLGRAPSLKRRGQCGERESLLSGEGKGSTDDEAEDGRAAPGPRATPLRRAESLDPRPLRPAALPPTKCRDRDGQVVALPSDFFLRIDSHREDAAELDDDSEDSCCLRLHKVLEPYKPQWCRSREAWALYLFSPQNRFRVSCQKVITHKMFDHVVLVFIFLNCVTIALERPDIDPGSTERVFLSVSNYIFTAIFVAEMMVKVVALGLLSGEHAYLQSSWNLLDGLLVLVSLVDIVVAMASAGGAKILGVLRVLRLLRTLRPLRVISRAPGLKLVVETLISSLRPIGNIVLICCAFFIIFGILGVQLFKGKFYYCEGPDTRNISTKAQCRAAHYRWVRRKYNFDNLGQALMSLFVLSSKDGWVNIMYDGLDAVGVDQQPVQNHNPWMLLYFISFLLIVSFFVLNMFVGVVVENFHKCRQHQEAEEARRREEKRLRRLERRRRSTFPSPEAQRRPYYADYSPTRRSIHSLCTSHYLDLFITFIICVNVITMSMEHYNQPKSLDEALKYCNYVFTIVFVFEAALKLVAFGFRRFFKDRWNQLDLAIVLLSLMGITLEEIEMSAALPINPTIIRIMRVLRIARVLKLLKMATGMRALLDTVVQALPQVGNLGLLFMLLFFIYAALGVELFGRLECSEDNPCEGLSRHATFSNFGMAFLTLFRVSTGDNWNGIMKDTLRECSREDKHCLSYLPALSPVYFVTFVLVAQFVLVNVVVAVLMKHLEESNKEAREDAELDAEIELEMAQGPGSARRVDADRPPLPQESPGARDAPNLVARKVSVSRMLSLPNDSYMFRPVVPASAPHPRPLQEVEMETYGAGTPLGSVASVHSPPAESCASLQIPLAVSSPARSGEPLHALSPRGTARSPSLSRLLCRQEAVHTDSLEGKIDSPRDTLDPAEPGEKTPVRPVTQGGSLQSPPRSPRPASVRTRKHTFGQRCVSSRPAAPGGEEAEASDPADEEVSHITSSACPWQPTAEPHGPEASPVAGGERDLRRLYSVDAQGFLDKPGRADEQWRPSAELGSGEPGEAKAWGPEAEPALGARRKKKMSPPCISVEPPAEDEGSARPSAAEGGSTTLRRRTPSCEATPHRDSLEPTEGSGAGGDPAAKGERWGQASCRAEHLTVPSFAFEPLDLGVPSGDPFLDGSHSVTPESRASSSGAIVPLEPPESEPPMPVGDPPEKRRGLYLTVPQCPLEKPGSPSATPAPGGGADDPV
ASSAY READOUT: IC50 (µM)
Output spec: scalar in µM, unitless text.

Worked examples follow.
• CC(C)([C@H]1C[C@@H](CNC(=O)c2ccc(Cl)c(OC(F)(F)F)c2)C1)S(=O)(=O)c1cccc(C(F)(F)F)c1 [Compound 688] = 0.45
• CC(C)([C@H]1C[C@@H](NS(=O)(=O)c2ccc(OC(F)(F)F)cc2)C1)S(=O)(=O)c1cccc(C(F)(F)F)c1 [Compound 630] = 3.73
• CC(C)([C@H]1C[C@@H](NS(=O)(=O)c2ccc(C(F)(F)F)cc2Cl)C1)S(=O)(=O)c1cccc(C(F)(F)F)c1 [Compound 627] = 2.2

Query block: Recorded IC50 for O=C(NC[C@H]1C[C@H](S(=O)(=O)c2cccc(OC(F)(F)F)c2)C1)c1ccc(C(F)(F)F)cc1 [Compound 694] , please?
Result block: 2.47

Query block: // query: CC(C)([C@H]1C[C@@H](NS(=O)(=O)c2ccc(C(F)(F)F)cc2)C1)S(=O)(=O)c1cccc(C(F)(F)F)c1 [Compound 624]
Result block: 2.96

Query block: # repeat for Cn1nc(C(F)(F)F)cc1C(=O)N[C@H]1C[C@@H](CC(C)(C)S(=O)(=O)c2cccc(C(F)(F)F)c2)C1 [Compound 738]
Result block: 2.25

Query block: // repeat for CC(C)([C@H]1C[C@@H](NC(=O)c2ccc(C(F)(F)F)cn2)C1)S(=O)(=O)c1cccc(C(F)(F)F)c1 [Compound 575] and report
Result block: 5.72

Query block: What about CC(C)([C@H]1C[C@@H](NC(=O)c2ccc(Cl)c(F)c2)C1)S(=O)(=O)c1cc(F)cc(C(F)(F)F)c1 [Compound 589] ?
Result block: 4.14

Query block: What about this molecule? CC(C)(C1CC(CNC(=O)c2ccc(OCC(F)(F)F)nc2)C1)S(=O)(=O)c1cccc(C(F)(F)F)c1 (centres unmarked) [Compound 619]
Result block: 3.29

Query block: Subsequent entry: O=C(NC[C@H]1C[C@H](S(=O)(=O)c2cccc(OC(F)(F)F)c2)C1)c1ccc(C(F)(F)F)nc1 [Compound 695]
Result block: 8.58

Query block: Would you kindly repeat that for O=S(=O)(c1cccc(OC(F)(F)F)c1)[C@H]1C[C@@H](CNc2ccnc(C(F)(F)F)n2)C1 [Compound 650] ?
Result block: 2.27

Query block: Same question, CC(C)(C[C@H]1C[C@H](NC(=O)c2ccc(C(F)(F)F)cn2)C1)S(=O)(=O)c1cccc(C(F)(F)F)c1 [Compound 722] this time
Result block: 3.68
